# Protocol text: Ratio of drug level in cerebellum to plasma in CD1 mouse at 400 to 600 kBq, iv after 60 mins post-injection in presence of 1 mg/kg, ip sigma 1/sigma 2 receptor antagonist haloperidol treated before compound addition
# Format: organism-based
# Parameters: route intravenous
Measurement label: Kp at 1 h
Lab note: record just the number, no unit beside it.

Q) Field request: Kp at 1 h | item: [18F]CCCC1OC2(CCN(Cc3ccccc3)CC2)c2ccccc21 (stereo unspecified)
A) 1

---

# Protocol text: Metabolic stability in CD1 mouse plasma at 200 to 300 MBq, iv after 60 mins post-injection by supelcosil C18 HPLC and TLC-radiochromatography
# Type: ADME, organism-based
# Test settings: read-out: Stability
Measurement label: remaining at 1 h

Q) Field request: remaining at 1 h | item: [18F]CCCC1OC2(CCN(Cc3ccccc3)CC2)c2ccccc21 (stereo unspecified)
A) > 85%

meta.source: ChEMBL document CHEMBL1154191
